# experiment notes: Pharmacokinetics in Beagle dogs, single s.c. and i.v. injection (Example 5)
# Type: in vivo
# setup conditions: male, plasma, 200 ug/kg, dog, IV
experimental endpoint: half-life (h)
Supply the numeric figure in h, leaving out any unit text.

Report half-life for CC[C@H](C)[C@@H]1NC(=O)[C@H](CC(=O)O)NC(=O)[C@H](CC(C)C)NC(=O)c2ccc(-c3ccc(N4CCN(C(=O)c5ccccc5-c5ccccc5C(=O)N5CCN(c6ccc(-c7ccc8cc7CNC(=O)[C@@H]7CCCN7[C@H](C(=O)NC(C)(C)C)[C@H](C)NC(=O)[C@H]([C@@H](C)CC)NC(=O)[C@H](CC(=O)O)NC(=O)[C@H](CC(C)C)NC8=O)cc6)CC5)CC4)cc3)c(c2)CNC(=O)[C@@H]2CCCN2[C@H](C(=O)NC(C)(C)C)[C@H](C)NC1=O [Compound 1] please. 53

###

# experiment notes: in vivo
# setup conditions: male, Beagle, dog, plasma, sc, 50 ug/kg
experimental endpoint: Tmax (h)
Supply the numeric figure in h, leaving out any unit text.

Report Tmax for CC[C@H](C)[C@@H]1NC(=O)[C@H](CC(=O)O)NC(=O)[C@H](CC(C)C)NC(=O)c2ccc(-c3ccc(N4CCN(C(=O)c5ccccc5-c5ccccc5C(=O)N5CCN(c6ccc(-c7ccc8cc7CNC(=O)[C@@H]7CCCN7[C@H](C(=O)NC(C)(C)C)[C@H](C)NC(=O)[C@H]([C@@H](C)CC)NC(=O)[C@H](CC(=O)O)NC(=O)[C@H](CC(C)C)NC8=O)cc6)CC5)CC4)cc3)c(c2)CNC(=O)[C@@H]2CCCN2[C@H](C(=O)NC(C)(C)C)[C@H](C)NC1=O please. 20

###

# experiment notes: Pharmacokinetics in Beagle dogs, single s.c. and i.v. injection (Example 5)
# Assay type: in vivo
# setup conditions: male, plasma, 200 ug/kg, dog, SC
experimental endpoint: AUC(0-inf)
Give the value; after it, write the unit.

Report AUC(0-inf) for CC[C@H](C)[C@@H]1NC(=O)[C@H](CC(=O)O)NC(=O)[C@H](CC(C)C)NC(=O)c2ccc(-c3ccc(N4CCN(C(=O)c5ccccc5-c5ccccc5C(=O)N5CCN(c6ccc(-c7ccc8cc7CNC(=O)[C@@H]7CCCN7[C@H](C(=O)NC(C)(C)C)[C@H](C)NC(=O)[C@H]([C@@H](C)CC)NC(=O)[C@H](CC(=O)O)NC(=O)[C@H](CC(C)C)NC8=O)cc6)CC5)CC4)cc3)c(c2)CNC(=O)[C@@H]2CCCN2[C@H](C(=O)NC(C)(C)C)[C@H](C)NC1=O please. 21.8 µM·h

###

# experiment notes: Pharmacokinetics in Beagle dogs, single s.c. and i.v. injection (Example 5)
# Format: in vivo
# setup conditions: male, plasma, 200 ug/kg, dog, SC
experimental endpoint: half-life (h)
Supply the numeric figure in h, leaving out any unit text.

Report half-life for CC[C@H](C)[C@@H]1NC(=O)[C@H](CC(=O)O)NC(=O)[C@H](CC(C)C)NC(=O)c2ccc(-c3ccc(N4CCN(C(=O)c5ccccc5-c5ccccc5C(=O)N5CCN(c6ccc(-c7ccc8cc7CNC(=O)[C@@H]7CCCN7[C@H](C(=O)NC(C)(C)C)[C@H](C)NC(=O)[C@H]([C@@H](C)CC)NC(=O)[C@H](CC(=O)O)NC(=O)[C@H](CC(C)C)NC8=O)cc6)CC5)CC4)cc3)c(c2)CNC(=O)[C@@H]2CCCN2[C@H](C(=O)NC(C)(C)C)[C@H](C)NC1=O please. 95.2

###

# experiment notes: in vivo
# setup conditions: male, Beagle, dog, plasma, sc, 200 ug/kg
# Description: Beagle dogs (males with a body weight of approximately 10-12 kg) were given a single subcutaneous (s.c.) injection of the peptides to be tested. […] Plasma samples were analyzed after protein precipitation by liquid chromatography mass spectrometry (LC-MS/MS). […] Plasma terminal elimination half-life (T½) was determined as ln(2)/λz where λz is the magnitude of the slope of the log linear regression of the log concentration versus time profile during the terminal phase. […]
experimental endpoint: Tmax (h)
Supply the numeric figure in h, leaving out any unit text.

Report Tmax for CC[C@H](C)[C@@H]1NC(=O)[C@H](CC(=O)O)NC(=O)[C@H](CC(C)C)NC(=O)c2ccc(-c3ccc(N4CCN(C(=O)c5ccccc5-c5ccccc5C(=O)N5CCN(c6ccc(-c7ccc8cc7CNC(=O)[C@@H]7CCCN7[C@H](C(=O)NC(C)(C)C)[C@H](C)NC(=O)[C@H]([C@@H](C)CC)NC(=O)[C@H](CC(=O)O)NC(=O)[C@H](CC(C)C)NC8=O)cc6)CC5)CC4)cc3)c(c2)CNC(=O)[C@@H]2CCCN2[C@H](C(=O)NC(C)(C)C)[C@H](C)NC1=O please. 20

###

# experiment notes: in vivo
# setup conditions: male, rat, plasma, iv, 510 nmol/kg
experimental endpoint: half-life (min)
Supply the numeric figure in min, leaving out any unit text.

Report half-life for CC[C@H](C)[C@@H]1NC(=O)[C@H](CC(=O)O)NC(=O)[C@H](CC(C)C)NC(=O)c2ccc(-c3ccc(N4CCN(C(=O)c5ccccc5-c5ccccc5C(=O)N5CCN(c6ccc(-c7ccc8cc7CNC(=O)[C@@H]7CCCN7[C@H](C(=O)NC(C)(C)C)[C@H](C)NC(=O)[C@H]([C@@H](C)CC)NC(=O)[C@H](CC(=O)O)NC(=O)[C@H](CC(C)C)NC8=O)cc6)CC5)CC4)cc3)c(c2)CNC(=O)[C@@H]2CCCN2[C@H](C(=O)NC(C)(C)C)[C@H](C)NC1=O [Compound 1] please. 337

###

# experiment notes: Pharmacokinetics in Beagle dogs, single s.c. and i.v. injection (Example 5)
# Assay type: in vivo
# setup conditions: male, plasma, 200 ug/kg, dog, IV
experimental endpoint: Cmax
Give the value; after it, write the unit.

Report Cmax for CC[C@H](C)[C@@H]1NC(=O)[C@H](CC(=O)O)NC(=O)[C@H](CC(C)C)NC(=O)c2ccc(-c3ccc(N4CCN(C(=O)c5ccccc5-c5ccccc5C(=O)N5CCN(c6ccc(-c7ccc8cc7CNC(=O)[C@@H]7CCCN7[C@H](C(=O)NC(C)(C)C)[C@H](C)NC(=O)[C@H]([C@@H](C)CC)NC(=O)[C@H](CC(=O)O)NC(=O)[C@H](CC(C)C)NC8=O)cc6)CC5)CC4)cc3)c(c2)CNC(=O)[C@@H]2CCCN2[C@H](C(=O)NC(C)(C)C)[C@H](C)NC1=O please. 743 nM

###

# experiment notes: in vivo
# setup conditions: male, Beagle, dog, plasma, sc, 20 ug/kg
experimental endpoint: Cmax

Report Cmax for CC[C@H](C)[C@@H]1NC(=O)[C@H](CC(=O)O)NC(=O)[C@H](CC(C)C)NC(=O)c2ccc(-c3ccc(N4CCN(C(=O)c5ccccc5-c5ccccc5C(=O)N5CCN(c6ccc(-c7ccc8cc7CNC(=O)[C@@H]7CCCN7[C@H](C(=O)NC(C)(C)C)[C@H](C)NC(=O)[C@H]([C@@H](C)CC)NC(=O)[C@H](CC(=O)O)NC(=O)[C@H](CC(C)C)NC8=O)cc6)CC5)CC4)cc3)c(c2)CNC(=O)[C@@H]2CCCN2[C@H](C(=O)NC(C)(C)C)[C@H](C)NC1=O please. 43.1 nM

###

# experiment notes: Pharmacokinetics in Beagle dogs, single s.c. and i.v. injection (Example 5)
# Assay type: in vivo
# setup conditions: male, plasma, 200 ug/kg, dog, IV
experimental endpoint: AUC(0-inf) (µM·h)
Supply the numeric figure in µM·h, leaving out any unit text.

Report AUC(0-inf) for CC[C@H](C)[C@@H]1NC(=O)[C@H](CC(=O)O)NC(=O)[C@H](CC(C)C)NC(=O)c2ccc(-c3ccc(N4CCN(C(=O)c5ccccc5-c5ccccc5C(=O)N5CCN(c6ccc(-c7ccc8cc7CNC(=O)[C@@H]7CCCN7[C@H](C(=O)NC(C)(C)C)[C@H](C)NC(=O)[C@H]([C@@H](C)CC)NC(=O)[C@H](CC(=O)O)NC(=O)[C@H](CC(C)C)NC8=O)cc6)CC5)CC4)cc3)c(c2)CNC(=O)[C@@H]2CCCN2[C@H](C(=O)NC(C)(C)C)[C@H](C)NC1=O please. 19.3

###

# experiment notes: in vivo
# setup conditions: male, Beagle, dog, plasma, sc, 200 ug/kg
# Description: Beagle dogs (males with a body weight of approximately 10-12 kg) were given a single subcutaneous (s.c.) injection of the peptides to be tested. […] Plasma samples were analyzed after protein precipitation by liquid chromatography mass spectrometry (LC-MS/MS). […] Plasma terminal elimination half-life (T½) was determined as ln(2)/λz where λz is the magnitude of the slope of the log linear regression of the log concentration versus time profile during the terminal phase. […]
experimental endpoint: AUC(0-inf) (µM·h)
Supply the numeric figure in µM·h, leaving out any unit text.

Report AUC(0-inf) for CC[C@H](C)[C@@H]1NC(=O)[C@H](CC(=O)O)NC(=O)[C@H](CC(C)C)NC(=O)c2ccc(-c3ccc(N4CCN(C(=O)c5ccccc5-c5ccccc5C(=O)N5CCN(c6ccc(-c7ccc8cc7CNC(=O)[C@@H]7CCCN7[C@H](C(=O)NC(C)(C)C)[C@H](C)NC(=O)[C@H]([C@@H](C)CC)NC(=O)[C@H](CC(=O)O)NC(=O)[C@H](CC(C)C)NC8=O)cc6)CC5)CC4)cc3)c(c2)CNC(=O)[C@@H]2CCCN2[C@H](C(=O)NC(C)(C)C)[C@H](C)NC1=O [Compound 1] please. 72.5
